All figures here come from patent US20170355774A1.

# Target of assay: T1, human GITR (amino acids M1-V241, NCBI Accession #NP_004186.1) expressed on cells (human, UniProt Q9Y5U5 26-241)
# T1 sequence: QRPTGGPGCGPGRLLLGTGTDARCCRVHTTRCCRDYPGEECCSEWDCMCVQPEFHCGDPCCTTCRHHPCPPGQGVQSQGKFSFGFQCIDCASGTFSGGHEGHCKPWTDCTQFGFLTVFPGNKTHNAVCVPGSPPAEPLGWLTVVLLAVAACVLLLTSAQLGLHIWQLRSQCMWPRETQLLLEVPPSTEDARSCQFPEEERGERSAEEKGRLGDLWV
# Experiment notes: cell-based or functional assay
Reported metric: EC50, hGITR activation, NF-kB-Luc, non-anchored (nM)
The figure you give is taken to be in nM; do not add the unit.

response.value for H4H14475P (antibody, human IgG4, V domains shown, human IgG4 (H4H)) VH: QVQLVESGGGVVQPGRSLRLSCAASGTIFSTHGMHWVRQAPGKGLEWVAVISYDGNKKYYAGSVKGRFTISRDNSKNTLYLQMNDVRSEDTAVYHCTTDITGITDYWGQGTLVTVSS VL: DIQMTQSPSSLSASVGDRVTITCRASQGIGNDLGWYQQKLGKAPKRLIYAASSLESGVPSRFSGSGSGTEFILTISSLQAEDFATYYCLQHNGFPTFGQGTKVEIK (field: EC50, hGITR activation, NF-kB-Luc, non-anchored) = 1
